# measuredTarget: human GPR119 receptor (Homo sapiens, UniProt Q8TDV5, S329A/T327A)
# Construct: N-terminal leader […]; expressed in transfected cells
# Sequence (Q8TDV5 with tags, fused parts or gaps T327A/S329A): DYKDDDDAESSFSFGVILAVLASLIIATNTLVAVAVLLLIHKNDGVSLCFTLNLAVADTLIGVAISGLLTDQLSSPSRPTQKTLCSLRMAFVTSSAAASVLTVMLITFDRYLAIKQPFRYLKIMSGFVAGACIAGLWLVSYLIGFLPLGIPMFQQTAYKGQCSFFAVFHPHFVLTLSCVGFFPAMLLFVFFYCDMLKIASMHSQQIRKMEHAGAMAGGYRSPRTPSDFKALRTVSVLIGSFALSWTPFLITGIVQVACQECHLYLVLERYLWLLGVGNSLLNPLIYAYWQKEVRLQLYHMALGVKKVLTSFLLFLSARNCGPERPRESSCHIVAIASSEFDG
# protocolText: cAMP assay (LANCE cAMP-384) in HEK293 cells stably expressing mutant human GPR119 receptor
# Assay type: cell-based
# conditionsUsed: cAMP accumulation, HEK293 cells stably expressing mutant human GPR119; read-out: EC50
pEC50: −log10 of the molar value.
Classes are defined on pEC50 with ranges lowest: < 6; middle: ≥ 6 and < 7; highest: ≥ 7

1) Cc1ccsc1-c1cc(F)c(N2CCC(=NOC3CCN(C(=O)OC(C)C)CC3)CC2)cc1F	middle
2) CC(C)OC(=O)N1CCC(ON=C2CCN(c3ccnc(O)c3)CC2)CC1	lowest
3) CC(C)OC(=O)N1CCC(ON=C2CCN(c3cc(F)c(NS(N)(=O)=O)cc3F)CC2)CC1	middle
4) CC(C)OC(=O)N1CCC(ON=C2CCN(c3ccc(C=O)cc3F)CC2)CC1	middle
5) CC(C)OC(=O)N1CCC(ON=C2CCN(c3cc(F)c(CN4CCN(C)C4=O)cc3F)CC2)CC1	middle

Request: Which class does CC(C)OC(=O)N1CCC(ON=C2CCN(c3cc(F)c(Cn4cnc5ncccc54)cc3F)CC2)CC1 fall in?
Response: middle

Request: Param item: CC(C)OC(=O)N1CCC(ON=C2CCN(c3cc(F)c(Br)cc3F)CC2)CC1
Response: lowest

Request: Param item: CC(C)OC(=O)N1CCC(ON=C2CCN(c3cc(F)c(-n4ccnc4)cc3F)CC2)CC1
Response: middle

Request: Param item: CC(C)OC(=O)N1CCC(ON=C2CCN(c3cc(F)c(CN(C)C)cc3F)CC2)CC1
Response: lowest

Request: Param item: CC(C)OC(=O)N1CCC(ON=C2CCN(c3cc(F)c(-c4ncc[nH]4)cc3F)CC2)CC1
Response: highest

Request: Param item: CC(C)OC(=O)N1CCC(ON=C2CCN(c3ncc([N+](=O)[O-])s3)CC2)CC1
Response: lowest

Request: Param item: CC(C)OC(=O)N1CCC(ON=C2CCN(c3nccc(Cl)n3)CC2)CC1
Response: lowest

Request: Param item: Cc1ccn(Cc2cc(F)c(N3CCC(=NOC4CCN(C(=O)OC(C)C)CC4)CC3)cc2F)n1
Response: middle

Request: Param item: CC(C)OC(=O)N1CCC(ON=C2CCN(c3cc(F)ccc3C=O)CC2)CC1
Response: middle

Request: Param item: CC(C)(C)OC(=O)N1CCC(ON=C2CCN(c3ccc(S(C)(=O)=O)cc3F)CC2)CC1
Response: highest

Request: Param item: CC(C)OC(=O)N1CCC(ON=C2CCN(c3ccccc3)CC2)CC1
Response: lowest

Request: Param item: CC(C)OC(=O)N1CCC(ON=C2CCN(c3cc(F)c(CN4CCCC4=O)cc3F)CC2)CC1
Response: highest

Request: Param item: CC(C)OC(=O)N1CCC(ON=C2CCN(c3ccncc3)CC2)CC1
Response: lowest

Request: Param item: CC(C)OC(=O)N1CCC(ON=C2CCN(c3nc(F)c(F)cc3F)CC2)CC1
Response: middle

Request: Param item: CC(C)OC(=O)N1CCC(ON=C2CCN(c3ncc(Cl)c(Cl)n3)CC2)CC1
Response: lowest

Request: Param item: CC(=O)c1cc(F)c(N2CCC(=NOC3CCN(C(=O)OC(C)C)CC3)CC2)cc1F
Response: middle

Request: Param item: CC(C)OC(=O)N1CCC(ON=C2CCN(c3cc(F)c(S(C)(=O)=O)cc3F)CC2)CC1
Response: highest

Request: Param item: COc1nc(N2CCC(=NOC3CCN(C(=O)OC(C)C)CC3)CC2)ncc1Br
Response: lowest

Request: Param item: CC(C)OC(=O)N1CCC(ON=C2CCN(c3cc(F)c(NS(C)(=O)=O)cc3F)CC2)CC1
Response: middle

Request: Param item: CC(C)OC(=O)N1CCC(ON=C2CCN(c3c(Cl)cncc3Cl)CC2)CC1
Response: lowest

Request: Param item: CCOC(=O)CNC(=O)NCc1cc(F)c(N2CCC(=NOC3CCN(C(=O)OC(C)C)CC3)CC2)cc1F
Response: middle

Request: Param item: Cc1nnnn1Cc1cc(F)c(N2CCC(=NOC3CCN(C(=O)OC(C)C)CC3)CC2)cc1F
Response: highest

Request: Param item: CC(C)OC(=O)N1CCC(ON=C2CCN(c3cc(F)c(S(=O)(=O)C4CC4)cc3F)CC2)CC1
Response: highest
